Data origin, for the record: patent US9771352B2

molecular target: human V2 receptor (Homo sapiens, UniProt P30518); construct: expressed in transfected cells; host or cells: CHO K1 (ATCC) expressing firefly luciferase under a CRE-responsive promoter; assay: Cellular in vitro assay for determining vasopressin receptor activity, V2 receptor cell line (CRE-luciferase); assay type: cell-based; conditions: CHO cell line transfected with human V2 receptor; [Arg8]-vasopressin at EC50; compounds of the invention (Table 1A); read-out: IC50 hV2
Sequence (P30518 whole entry): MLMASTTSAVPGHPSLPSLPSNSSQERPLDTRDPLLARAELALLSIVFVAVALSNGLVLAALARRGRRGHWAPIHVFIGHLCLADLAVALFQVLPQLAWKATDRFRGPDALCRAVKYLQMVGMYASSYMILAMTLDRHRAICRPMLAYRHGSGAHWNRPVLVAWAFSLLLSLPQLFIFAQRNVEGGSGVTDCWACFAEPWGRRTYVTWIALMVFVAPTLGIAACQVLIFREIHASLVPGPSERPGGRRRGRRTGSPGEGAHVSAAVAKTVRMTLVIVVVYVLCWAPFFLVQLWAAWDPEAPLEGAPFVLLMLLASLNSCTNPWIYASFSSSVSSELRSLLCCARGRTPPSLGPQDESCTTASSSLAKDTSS
pIC50: −log10 of the molar value.
result-type: pIC50

Previously resolved entries follow.
compound="CC(O)c1nc(Cn2nc(-c3ccc(Cl)cc3)n(C[C@H](O)C(F)(F)F)c2=O)nn1-c1cccc(C(F)(F)F)c1 (mixture of isomers) [Example 22]" result_type=pIC50 reported_measurement=8.64
compound="CC(O)c1nc(Cn2nc(-c3ccc(Cl)cc3)n(C[C@H](O)C(F)(F)F)c2=O)nn1-c1ccc(F)c(Cl)c1 (mixture of isomers) [Example 43]" result_type=pIC50 reported_measurement=8.92

I = Cc1ccccc1-n1nc(Cn2nc(-c3ccc(Cl)cc3)n(C[C@H](O)C(F)(F)F)c2=O)nc1CO
II = C[C@@H](O)c1nc(Cn2nc(-c3ccc(Cl)cc3)n(C[C@H](O)C(F)(F)F)c2=O)nn1-c1cccc(F)c1
Ask: Looking only at measured pIC50, which entry is lower, I or II ? Refer to your chosen item by its label in the answer.
Result: II
(II: 7.87, I: 8.74)
